Target: Human LPA1 (Homo sapiens)
Construct: the full-length cDNA for human LPA1 was obtained by PCR of the reverse transcription reaction
Assay: LPA1 calcium flux assay
Conditions: CHO cells expressing human LPA1, stimulated with 10 nM LPA; read-out: LPA1 Ca^2+ flux
For each record, write down the corresponding IC50.

(Q) Tell me the measured IC50 of O=C(O)C1(c2ccc(-c3ccc(-c4ccsc4C(O)CCCc4ccccc4)cc3)cc2)CC1 (stereo not shown) , please.
(A) < 300 nM

(Q) Tell me the measured IC50 of O=C(O)C1(c2ccc(-c3ccc(-c4ccncc4C(O)CCCc4ccccc4)cc3)cc2)CC1 (stereo not shown) , please.
(A) < 300 nM

(Q) Tell me the measured IC50 of Cn1ncc(-c2ccc(-c3ccc(C4(C(=O)O)CC4)cc3)cc2)c1NCc1cnc(-c2ccccc2)s1 , please.
(A) 1000 to 10000 nM

(Q) Tell me the measured IC50 of C[C@@H](OC(=O)Nc1ncoc1-c1ccc(-c2ccc(C3(C(=O)O)CC3)cc2)cc1)c1ccccc1 , please.
(A) < 300 nM

* * *

Target: Human LPA1 (Homo sapiens, UniProt Q92633)
Construct: the full-length cDNA for human LPA1 was obtained by PCR of the reverse transcription reaction
Sequence (Q92633 whole entry): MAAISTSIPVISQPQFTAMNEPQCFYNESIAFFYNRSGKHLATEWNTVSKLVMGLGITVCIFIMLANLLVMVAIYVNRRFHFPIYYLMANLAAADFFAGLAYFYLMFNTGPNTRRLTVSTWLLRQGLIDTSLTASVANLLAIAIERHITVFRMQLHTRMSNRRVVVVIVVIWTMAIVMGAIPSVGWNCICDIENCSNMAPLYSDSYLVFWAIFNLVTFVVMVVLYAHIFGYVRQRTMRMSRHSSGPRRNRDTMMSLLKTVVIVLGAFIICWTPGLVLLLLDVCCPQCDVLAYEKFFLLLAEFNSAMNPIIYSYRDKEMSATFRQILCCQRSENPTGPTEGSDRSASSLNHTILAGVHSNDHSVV
Experiment: LPA1 calcium flux assay
Details: CHO cells expressing human LPA1, stimulated with 10 nM LPA; read-out: LPA1 Ca^2+ flux
For each record, write down the corresponding IC50.

(Q) Tell me the measured IC50 of CCn1ncc(-c2ccc(-c3ccc(C4(CC(=O)O)CC4)cc3)cc2)c1C(O)CCCc1ccccc1 (stereo not shown) [Compound 1-24] , please.
(A) < 300 nM

(Q) Tell me the measured IC50 of O=C(O)C1(c2ccc(-c3ccc(-c4sccc4C(O)CCCc4ccccc4)cc3)cc2)CC1 (stereo not shown) [Compound 1-18] , please.
(A) < 300 nM

(Q) Tell me the measured IC50 of CC(CCc1ccc(Cl)cc1)Nc1c(-c2ccc(-c3ccc(C4(C(=O)O)CC4)cc3)cc2)cnn1C (stereo not shown) [Compound 1-21] , please.
(A) < 300 nM

(Q) Tell me the measured IC50 of O=C(O)CC1(c2ccc(-c3ccc(-c4ncccc4C(O)CCCc4ccccc4)cc3)cc2)CC1 (stereo not shown) [Compound 1-12] , please.
(A) < 300 nM
